Reported cell viability by item:
- Test system: SEM cells
- testDetails: cell viability relative to DMSO control; higher = less cytotoxic
- setupConditions: RPMI 5 mM glucose + 10% dialyzed FBS; 48 h; 0.000781 µM
Number only, in %; omit the unit.

Query block: Item `OCCn1cc(-c2cnc3nnn(Cc4ccc5ncccc5c4)c3n2)cn1` has what recorded cell viability?
Result block: 84.6

Query block: Item `Cn1cc(C[C@@H](N)C(=O)O)c2ccccc21` has what recorded cell viability?
Result block: 114

Query block: Item `O.O.CCN1CCN(C(=O)N[C@H](C(=O)N[C@H]2[C@@H]3SC\C(=C(/N3C2=O)C(O)=O)CSC4=NN=N[N]4C)C5=CC=C(O)C=C5)C(=O)C1=O` has what recorded cell viability?
Result block: 88.1

Query block: Item `CN1CCN(CCCN2c3ccccc3Sc3ccc(C(F)(F)F)cc32)CC1` has what recorded cell viability?
Result block: 90.6

Query block: Item CCN1CCCC1CNC(=O)c1cc([S+](N)(=O)[O-])ccc1OC (stereo not drawn) has what recorded cell viability?
Result block: 102

Query block: Item `CO/N=C(/C(=O)N[C@@H]1C(=O)N2C(C(=O)O)=C(CSC(=O)c3ccco3)CS[C@H]12)c1csc(N)n1` has what recorded cell viability?
Result block: 89.1

Query block: Item `CN(C)CCN1C(=O)c2cccc3cc(N)cc(c23)C1=O` has what recorded cell viability?
Result block: 89.5

Query block: Item `COc1cc(CNC(=O)CCCC/C=C/C(C)C)ccc1O` has what recorded cell viability?
Result block: 94.3

Query block: Item `N#C/N=C(\NCCCCCCOc1ccc(Cl)cc1)Nc1ccncc1` has what recorded cell viability?
Result block: 15

Query block: Item `C#CCN[C@@H]1CCc2ccccc21.CS(=O)(=O)O` has what recorded cell viability?
Result block: 107

Query block: Item `N[S+](=O)([O-])OC[C@@H]1C[C@@H](n2ccc3c(N[C@H]4CCc5ccccc54)ncnc32)C[C@@H]1O` has what recorded cell viability?
Result block: 90.8

###

- Tested on: SEM cells
- testDetails: cell viability relative to DMSO control; higher = less cytotoxic
- setupConditions: RPMI 5 mM glucose + 10% dialyzed FBS; 48 h; 46.1 µM
# label = bin(measured cell viability), where bins are lower bin = under 20%, middle bin = from 20% up to 90%, upper bin = 90% and over

Past entries and their recorded results:
OCc1ccc(-c2ccc(-c3ccc(CO)s3)o2)s1; upper bin
O.O.CCN1CCN(C(=O)N[C@H](C(=O)N[C@H]2[C@@H]3SC\C(=C(/N3C2=O)C(O)=O)CSC4=NN=N[N]4C)C5=CC=C(O)C=C5)C(=O)C1=O; upper bin
CN1CCN(CCCN2c3ccccc3Sc3ccc(C(F)(F)F)cc32)CC1; middle bin

Query block: Assign a bin to `CC(C)(O)/C=C\C(=O)[C@](C)(O)[C@H]1[C@H](O)C[C@]2(C)[C@@H]3CC=C4[C@@H](C=C(O)C(=O)C4(C)C)[C@]3(C)C(=O)C[C@@]12C`
Result block: lower bin

Query block: Assign a bin to `C[C@@H](O)[C@@H]1NC(=O)[C@H](CCCCN)NC(=O)[C@@H](Cc2c[nH]c3ccccc23)NC(=O)[C@H](Cc2ccccc2)NC(=O)[C@@H](NC(=O)[C@H](N)Cc2ccccc2)CSSC[C@@H](C(=O)N[C@H](CO)[C@@H](C)O)NC1=O`
Result block: middle bin

Query block: Assign a bin to `c1ccc(-c2oc3ncnc(NC[C@@H]4CCCO4)c3c2-c2ccccc2)cc1`
Result block: middle bin

Query block: Assign a bin to `COc1cccc2c1[C@]13CCN(CC4CC4)[C@H](C2)[C@]1(OC)CCC(=O)C3`
Result block: middle bin

Query block: Assign a bin to `OC1=CC2=C(C(=C1)O)C(=O)\C(=C(/O2)C3=CC(=C(O)C=C3)O)O`
Result block: middle bin

Query block: Assign a bin to `CC(=O)[C@]1(O)Cc2c(O)c3c(c(O)c2[C@@H](O[C@H]2C[C@H](N)[C@H](O)[C@H](C)O2)C1)C(=O)c1ccccc1C3=O`
Result block: lower bin

Query block: Assign a bin to `CCOC(=O)/C=C/[C@H](C[C@@H]1CCNC1=O)NC(=O)[C@@H](CC(=O)[C@@H](NC(=O)c1cc(C)on1)C(C)C)Cc1ccc(F)cc1`
Result block: upper bin

Query block: Assign a bin to `CC/1=C(\O)C(=O)\C=C2/C1=C/C=C3\[C@@]2(C)CC[C@@]4(C)[C@@H]5C[C@@](C)(CC[C@]5(C)CC[C@]34C)C(O)=O`
Result block: lower bin

Query block: Assign a bin to `CO/N=C(/C(=O)N[C@@H]1C(=O)N2C(C(=O)O)=C(CSC(=O)c3ccco3)CS[C@H]12)c1csc(N)n1`
Result block: upper bin

Query block: Assign a bin to `NC(=O)OCC(COC(N)=O)c1ccccc1`
Result block: upper bin

Query block: Assign a bin to `O=C1NC(=O)/C(=C/c2ccc(-c3ccc(F)cc3O)o2)S1`
Result block: middle bin

Query block: Assign a bin to `O=[S+]([O-])(c1cccc2cnccc12)N1CCCNCC1`
Result block: upper bin

Query block: Assign a bin to `COc1ncc(-c2ccc3c(Nc4cc(Oc5cc(F)cc(F)c5)cc(C(=O)O)c4)c([S+](=O)([O-])NC4CC4)cnc3c2)c(OC)n1`
Result block: middle bin

Query block: Assign a bin to `NC(=O)Nc1cc(-c2cccc(F)c2)sc1C(=O)N[C@H]1CCCNC1`
Result block: lower bin
